B1: EEHEE_rd3_1049 (parent)
chain: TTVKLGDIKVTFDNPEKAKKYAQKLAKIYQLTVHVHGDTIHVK

Variants of: B1
protocol-notes: folding stability dG (cDNA display proteolysis); higher = more stable
test-context: PBS, room temperature
test-readout: folding stability dG (kcal/mol)
Return type: number; implicit unit kcal/mol.

# annotated cases, reported folding stability dG shown
mutation-label	unit-label	meas-value
K19W	kcal/mol	3.16
Q23D	kcal/mol	1.91
F12N	kcal/mol	-0.055
F12R	kcal/mol	0.188
K4P	kcal/mol	0.652

Consider the additional variant presented here.
Input line: Provide only the value of recorded folding stability dG for H36G
Output line: 1.16

Reference source for all entries: the MegaScale stability set (Tsuboyama et al. 2023)
